Quick reference for pIC50 among some compounds
# Assay System: SHP2 (full length) (Homo sapiens)
# Construct: SHP2 (full length, diluted to 100 pM final concentration in reaction buffer, BPS bioscience, US); purchased BPS bioscience, US
# Assay Summary: Phosphatase assay (PTPase assay) with DiFMUP substrate
# Assay type: biochemical
# Condition Info: SHP2 activated with SHP2 activating peptide; DiFMUP 80 μM, 2 hours; fluorescence; read-out: IC50 (PTPase aS say)
pIC50: −log10 of the molar value.

- CC(C)OCCn1cnc2ccc(Sc3cnc(N4CCC5(CC4)CO[C@@H](C)[C@H]5N)cn3)c(Cl)c2c1=O: > 8.52
- CNS(=O)(=O)c1cccc(Sc2cnc(N3CCC(C)(N)CC3)cn2)c1Cl: 7.00 to 8.52
- C[C@@H]1OCC2(CCN(c3cnc(Sc4ccc5nc(Cc6ccccc6)[nH]c5c4Cl)cn3)CC2)[C@@H]1N: 7.00 to 8.52

Which pIC50 reading was recorded for the compound C[C@@H]1OCC2(CCN(c3cnc(Sc4ccc5ncn(Cc6ccon6)c(=O)c5c4Cl)cn3)CC2)[C@@H]1N ?
> 8.52

Endpoint output: pIC50 of N[C@@H]1c2scnc2CC12CCN(c1cnc(Sc3ccc4ncn(CC5CCOCC5)c(=O)c4c3Cl)cn1)CC2 . Value?
> 8.52

Give the measured pIC50 of C[C@@H]1OCC2(CCN(c3cnc(Sc4ccc5ncn(CC(C)(C)F)c(=O)c5c4Cl)cn3)CC2)[C@@H]1N .
7.00 to 8.52

* * *

# Assay System: SHP2 (full length) (Homo sapiens, UniProt Q06124)
# Construct: SHP2 (full length, diluted to 100 pM final concentration in reaction buffer, BPS bioscience, US); purchased BPS bioscience, US
# Sequence (Q06124 whole entry): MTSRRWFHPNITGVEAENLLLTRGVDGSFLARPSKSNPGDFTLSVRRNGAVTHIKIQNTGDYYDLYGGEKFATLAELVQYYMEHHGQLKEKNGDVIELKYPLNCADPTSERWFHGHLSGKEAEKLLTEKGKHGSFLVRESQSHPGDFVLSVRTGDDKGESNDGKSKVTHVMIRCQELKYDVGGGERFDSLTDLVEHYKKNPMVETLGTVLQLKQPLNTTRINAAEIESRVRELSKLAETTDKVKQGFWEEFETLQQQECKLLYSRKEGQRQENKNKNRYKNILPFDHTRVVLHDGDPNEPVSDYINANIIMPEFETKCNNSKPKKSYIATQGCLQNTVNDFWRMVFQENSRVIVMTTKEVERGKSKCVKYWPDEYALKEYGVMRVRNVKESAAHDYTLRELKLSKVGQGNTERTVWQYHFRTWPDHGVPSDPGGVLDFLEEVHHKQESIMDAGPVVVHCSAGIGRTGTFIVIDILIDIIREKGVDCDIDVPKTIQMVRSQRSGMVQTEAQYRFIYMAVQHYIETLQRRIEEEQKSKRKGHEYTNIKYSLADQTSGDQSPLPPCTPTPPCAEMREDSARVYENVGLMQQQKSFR
# Assay Summary: Phosphatase assay (PTPase assay) with DiFMUP substrate
# Type: biochemical
# Condition Info: SHP2 activated with SHP2 activating peptide; DiFMUP 80 μM, 2 hours; fluorescence; read-out: IC50 (PTPase aS say)
pIC50: −log10 of the molar value.
Reported Metric: pIC50

Some entries whose results are on file:
• N[C@H]1c2ccccc2CC12CCN(c1cnc(Sc3ccc4ncn(CC5CCOC5)c(=O)c4c3Cl)cn1)CC2 (some centres unmarked) [Example 104] = > 8.52
• COc1ccc2c(c1)[C@@H](N)C1(CCN(c3cnc(Sc4ccc5ncn(CC(C)(C)O)c(=O)c5c4Cl)cn3)CC1)C2 [Example 162] = > 8.52
• C[C@@H]1OCC2(CCN(c3cnc(Sc4ccc5ncn(Cc6ccc(N)nc6)c(=O)c5c4Cl)cn3)CC2)[C@@H]1N [Example 48] = > 8.52
• COc1ccc(Cn2cnc3ccc(Sc4cnc(N5CCC6(CC5)CO[C@@H](C)[C@H]6N)cn4)c(Cl)c3c2=O)cc1 [Example 41] = > 8.52
• COc1ccc(Cn2cnc3ccc(Sc4cnc(N5CCC6(CC5)CO[C@@H](C)[C@H]6N)cn4)c(Cl)c3c2=O)cc1F [Example 73] = > 8.52

Find pIC50 (SHP2 (full length) (Homo sapiens, UniProt Q06124)) for the entry COc1cccc(Cc2nc3ccc(Sc4cnc(N5CCC6(CC5)CO[C@@H](C)[C@H]6N)cn4)c(Cl)c3[nH]2)c1 [Example 135]
< 7.00

Missing value: pIC50, SHP2 (full length) (Homo sapiens, UniProt Q06124), entry C[C@@H]1OCC2(CCN(c3cnc(Sc4ccc5ncn(Cc6cccnc6N)c(=O)c5c4Cl)cn3)CC2)[C@@H]1N [Example 52] . Fill in?
7.00 to 8.52

Form field: pIC50 recorded for Cc1ccc(Cn2cnc3ccc(Sc4cnc(N5CCC6(CC5)CO[C@@H](C)[C@H]6N)cn4)c(Cl)c3c2=O)c(F)c1 [Example 69] with SHP2 (full length) (Homo sapiens, UniProt Q06124) (enter value)
> 8.52
